system tested: human α1β2γ2 GABAΑ receptor (Homo sapiens, UniProt P14867+P47870)
Sequence (P14867 28-456): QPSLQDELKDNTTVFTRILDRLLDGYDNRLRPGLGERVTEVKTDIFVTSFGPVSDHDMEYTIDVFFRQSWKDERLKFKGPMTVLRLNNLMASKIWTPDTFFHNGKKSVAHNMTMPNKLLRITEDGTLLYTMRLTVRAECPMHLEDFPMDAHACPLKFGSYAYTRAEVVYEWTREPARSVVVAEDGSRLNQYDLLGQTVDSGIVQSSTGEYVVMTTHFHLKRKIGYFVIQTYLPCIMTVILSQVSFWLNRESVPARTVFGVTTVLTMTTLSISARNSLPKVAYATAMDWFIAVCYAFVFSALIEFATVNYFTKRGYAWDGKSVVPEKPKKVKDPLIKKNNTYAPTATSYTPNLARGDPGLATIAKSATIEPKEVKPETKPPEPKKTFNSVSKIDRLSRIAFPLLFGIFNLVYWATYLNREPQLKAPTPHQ
Sequence (P47870 25-512 limits assumed): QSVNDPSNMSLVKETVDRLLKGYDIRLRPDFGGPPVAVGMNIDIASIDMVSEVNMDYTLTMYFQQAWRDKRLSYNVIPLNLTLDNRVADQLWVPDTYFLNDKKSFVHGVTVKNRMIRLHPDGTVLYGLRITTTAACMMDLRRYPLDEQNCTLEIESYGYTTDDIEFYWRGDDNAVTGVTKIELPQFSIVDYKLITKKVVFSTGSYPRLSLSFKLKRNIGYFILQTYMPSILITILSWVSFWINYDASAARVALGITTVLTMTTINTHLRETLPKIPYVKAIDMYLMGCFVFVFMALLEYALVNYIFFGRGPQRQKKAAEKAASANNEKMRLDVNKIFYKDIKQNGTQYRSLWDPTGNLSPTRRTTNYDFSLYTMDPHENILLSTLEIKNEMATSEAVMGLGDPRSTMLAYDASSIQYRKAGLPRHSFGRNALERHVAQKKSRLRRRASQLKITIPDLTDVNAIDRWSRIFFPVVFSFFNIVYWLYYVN
Sequence (P18507 40-475 partner): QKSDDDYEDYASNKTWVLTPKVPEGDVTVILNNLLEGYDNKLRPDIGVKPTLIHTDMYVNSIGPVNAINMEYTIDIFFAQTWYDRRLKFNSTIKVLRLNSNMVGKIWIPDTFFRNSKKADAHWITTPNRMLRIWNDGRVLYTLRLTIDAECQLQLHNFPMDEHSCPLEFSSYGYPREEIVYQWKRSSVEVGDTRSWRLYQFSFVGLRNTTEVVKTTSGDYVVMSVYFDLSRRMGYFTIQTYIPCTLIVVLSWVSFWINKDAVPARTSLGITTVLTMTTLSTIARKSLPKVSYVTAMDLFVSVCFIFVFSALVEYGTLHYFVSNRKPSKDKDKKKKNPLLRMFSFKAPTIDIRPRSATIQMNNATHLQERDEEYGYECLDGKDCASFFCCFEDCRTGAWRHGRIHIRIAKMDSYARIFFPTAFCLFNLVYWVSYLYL
method description: FMP assay at α1β2γ2 GABAA receptors in HEK cells
parameter measured: pIC50
One number for each entry, as −log10 of the molar value.

compound: CC(=O)Nc1cccc(C(=O)N2CCC3(CCNCC3)CC2)c1 [compound 2027]
pIC50: 5.30

--- query ---
Lookup: Output measured pIC50 for this item: O=C(Nc1cccc(C(=O)N2CCC3(CCNCC3)CC2)c1)c1cccs1 [compound 018]
Found: 6.10

###

Hi there, I'd appreciate the recorded IC50 for every entry that follows.
system tested: human α4β1γ2 GABAΑ receptor (Homo sapiens, UniProt P18505+P48169)
Sequence (P48169 36-554): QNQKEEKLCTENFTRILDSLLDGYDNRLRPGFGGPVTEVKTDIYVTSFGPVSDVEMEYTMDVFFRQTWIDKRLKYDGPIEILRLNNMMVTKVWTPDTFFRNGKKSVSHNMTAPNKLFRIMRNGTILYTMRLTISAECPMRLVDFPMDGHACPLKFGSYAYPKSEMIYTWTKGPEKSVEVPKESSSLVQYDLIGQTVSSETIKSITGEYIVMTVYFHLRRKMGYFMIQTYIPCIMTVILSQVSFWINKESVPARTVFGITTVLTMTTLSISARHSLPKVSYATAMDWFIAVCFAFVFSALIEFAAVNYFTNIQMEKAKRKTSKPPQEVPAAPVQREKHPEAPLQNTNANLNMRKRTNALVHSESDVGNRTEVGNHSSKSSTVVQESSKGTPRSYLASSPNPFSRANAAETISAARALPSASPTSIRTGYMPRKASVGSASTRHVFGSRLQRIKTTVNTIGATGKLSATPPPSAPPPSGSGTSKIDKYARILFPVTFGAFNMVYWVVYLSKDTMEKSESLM
Sequence (P18505 26-474): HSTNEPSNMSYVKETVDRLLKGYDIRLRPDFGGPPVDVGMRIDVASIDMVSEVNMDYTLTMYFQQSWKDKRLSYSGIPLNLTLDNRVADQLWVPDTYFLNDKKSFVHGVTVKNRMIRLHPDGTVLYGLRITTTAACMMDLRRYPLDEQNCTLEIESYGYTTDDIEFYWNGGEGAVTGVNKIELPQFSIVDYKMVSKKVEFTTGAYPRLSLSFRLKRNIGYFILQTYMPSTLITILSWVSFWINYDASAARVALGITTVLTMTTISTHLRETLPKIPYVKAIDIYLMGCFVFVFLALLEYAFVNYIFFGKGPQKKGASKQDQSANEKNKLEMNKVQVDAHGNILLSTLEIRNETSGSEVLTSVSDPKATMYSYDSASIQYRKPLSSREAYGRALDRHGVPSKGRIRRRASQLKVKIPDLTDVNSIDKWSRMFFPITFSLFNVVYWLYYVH
Sequence (P18507 40-475 partner): as the sequence (P18507 40-475 partner) above
method description: FMP assay at α4β1γ2 GABAA receptors in HEK cells
One number for each entry, in µM.

smi: O=C(Nc1cccc(C(=O)N2CCC3(CCNCC3)CC2)c1)c1cccs1
IC50 (µM): 0.0372

Lab note: next molecule to report on.
Lookup: Look up and report measured IC50 for this entry: `CC(=O)Nc1cccc(C(=O)N2CCC3(CCNCC3)CC2)c1`
Found: 0.166
